Where do the numbers come from? From ChEMBL document CHEMBL5325415.

molecular target: Falcipain 2 (Plasmodium falciparum, UniProt Q9N6S8); experiment: Inhibition of Plasmodium falciparum FP-2 using Cbz-Phe-Arg-AMC as substrate pretreated with enzyme for 10 mins followed by substrate addition and measured after 10 mins by fluorescence based analysis
pIC50: −log10 of the molar value.
Readout Type: pIC50

>>> df
                                 cpd_smiles  readout_type  readout_number
0  Cc1ccc(-c2nn(-c3ccccc3)cc2/C=C/c2nnc(-c3ccc([N+](=O)[O-])cc3)o2)cc1         pIC50            4.80
1  Cc1ccc(-c2nn(-c3ccccc3)cc2/C=C/c2nnc(-c3ccc(Cl)cc3Cl)o2)cc1         pIC50            3.96
2  C(=C\c1cn(-c2ccccc2)nc1-c1ccccc1)/c1nnc(-c2c[nH]c3ccccc23)o1         pIC50            5.15
3  Cc1ccc(-c2nn(-c3ccccc3)cc2/C=C/c2nnc(-c3ccc(Cl)cc3)o2)cc1         pIC50            4.70
4  C(=C\c1cn(-c2ccccc2)nc1-c1ccccc1)/c1nnc(-c2ccco2)o1         pIC50            4.85

###

Target: Falcipain 2 (Plasmodium falciparum)
Sequence (Q9N6S8 whole entry): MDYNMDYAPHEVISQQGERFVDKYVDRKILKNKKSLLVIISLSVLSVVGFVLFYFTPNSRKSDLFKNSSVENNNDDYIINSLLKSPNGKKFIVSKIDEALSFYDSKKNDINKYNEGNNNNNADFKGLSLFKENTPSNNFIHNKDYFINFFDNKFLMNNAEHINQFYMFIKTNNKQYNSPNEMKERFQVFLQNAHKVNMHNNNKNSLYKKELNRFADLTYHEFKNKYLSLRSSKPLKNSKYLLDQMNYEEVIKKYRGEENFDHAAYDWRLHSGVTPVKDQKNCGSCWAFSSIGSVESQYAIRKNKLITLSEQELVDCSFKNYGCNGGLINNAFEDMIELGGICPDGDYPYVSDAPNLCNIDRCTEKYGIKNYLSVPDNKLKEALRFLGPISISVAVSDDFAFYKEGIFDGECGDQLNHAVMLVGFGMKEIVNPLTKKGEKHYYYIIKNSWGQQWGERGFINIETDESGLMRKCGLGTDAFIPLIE
Assay: Inhibition of Plasmodium falciparum FP2 using ZFR-AMC as substrate preincubated with enzyme for 10 mins followed by substrate addition and measured for 30 mins by fluorimetric analysis
Readout Type: IC50 (µM)

                                 cpd_smiles  readout_type  unit  readout_number
0  O=C(c1cc(Cl)nc2ccccc12)N1CCN(c2ccnc3cc(Cl)ccc23)CC1          IC50    µM            4.78
1  O=C(c1cc(-c2ccccc2)nc2ccccc12)N1CCN(S(=O)(=O)c2ccc(Cl)cc2Cl)CC1          IC50    µM             4.2
2  CC(=O)Nc1ccc(S(=O)(=O)N2CCN(C(=O)c3cc(-c4ccc(OC(F)(F)F)cc4)nc4ccccc34)CC2)cc1          IC50    µM            2.64

###

Measured pIC50, listed per entry for reference.
Target: Falcipain 2 (Plasmodium falciparum, UniProt Q9N6S8)
Sequence (Q9N6S8 whole entry): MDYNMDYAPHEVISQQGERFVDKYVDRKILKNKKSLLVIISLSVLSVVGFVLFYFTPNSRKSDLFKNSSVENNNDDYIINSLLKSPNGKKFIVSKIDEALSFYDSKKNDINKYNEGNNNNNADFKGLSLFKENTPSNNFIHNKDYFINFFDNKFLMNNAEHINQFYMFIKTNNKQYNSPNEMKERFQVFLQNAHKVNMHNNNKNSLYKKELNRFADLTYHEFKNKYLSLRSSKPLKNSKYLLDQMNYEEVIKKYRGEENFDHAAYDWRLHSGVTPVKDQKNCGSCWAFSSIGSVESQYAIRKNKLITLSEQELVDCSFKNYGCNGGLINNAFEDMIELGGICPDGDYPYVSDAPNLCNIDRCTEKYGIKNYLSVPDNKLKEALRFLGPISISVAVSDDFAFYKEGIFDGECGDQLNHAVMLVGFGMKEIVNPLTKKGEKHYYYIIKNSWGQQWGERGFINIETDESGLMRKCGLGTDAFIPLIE
Experiment: Inhibition of Plasmodium falciparum FP2 using ZFR-AMC as substrate preincubated with enzyme for 10 mins followed by substrate addition and measured for 30 mins by fluorimetric analysis
pIC50: −log10 of the molar value.
Readout Type: pIC50

                                 cpd_smiles  readout_type  readout_number
0  COc1ccc(-n2cc(COc3ccnc4cc(Cl)ccc34)nn2)cc1         pIC50            4.60
1  CC(=O)Nc1ccc(S(=O)(=O)N2CCN(C(=O)c3cc(Cl)nc4ccccc34)CC2)cc1         pIC50            5.13
2  O=[N+]([O-])c1ccc(-n2cc(COc3ccnc4cc(Cl)ccc34)nn2)cc1         pIC50            4.79
3  Fc1ccc(-n2cc(COc3ccnc4cc(Cl)ccc34)nn2)cc1F         pIC50            4.59
4  Cc1ccc(-n2cc(COc3ccnc4cc(Cl)ccc34)nn2)cc1         pIC50            4.58
5  Fc1ccc(-n2cc(COc3ccnc4cc(Cl)ccc34)nn2)c(F)c1         pIC50            4.60
6  Fc1ccc(-n2cc(COc3ccnc4cc(Cl)ccc34)nn2)cc1Cl         pIC50            4.35
7   Fc1ccccc1-n1cc(COc2ccnc3cc(Cl)ccc23)nn1         pIC50            3.97
8  O=C(c1cc(-c2ccccc2)nc2ccccc12)N1CCN(c2cc(=O)[nH]c3ccccc23)CC1         pIC50            4.89
9  COc1ccc(-c2cc(C(=O)N3CCN(S(=O)(=O)c4ccc(NC(C)=O)cc4)CC3)c3ccccc3n2)cc1         pIC50            5.67

###

Target: Falcipain 2 (Plasmodium falciparum, UniProt Q9N6S8)
Sequence (Q9N6S8 whole entry): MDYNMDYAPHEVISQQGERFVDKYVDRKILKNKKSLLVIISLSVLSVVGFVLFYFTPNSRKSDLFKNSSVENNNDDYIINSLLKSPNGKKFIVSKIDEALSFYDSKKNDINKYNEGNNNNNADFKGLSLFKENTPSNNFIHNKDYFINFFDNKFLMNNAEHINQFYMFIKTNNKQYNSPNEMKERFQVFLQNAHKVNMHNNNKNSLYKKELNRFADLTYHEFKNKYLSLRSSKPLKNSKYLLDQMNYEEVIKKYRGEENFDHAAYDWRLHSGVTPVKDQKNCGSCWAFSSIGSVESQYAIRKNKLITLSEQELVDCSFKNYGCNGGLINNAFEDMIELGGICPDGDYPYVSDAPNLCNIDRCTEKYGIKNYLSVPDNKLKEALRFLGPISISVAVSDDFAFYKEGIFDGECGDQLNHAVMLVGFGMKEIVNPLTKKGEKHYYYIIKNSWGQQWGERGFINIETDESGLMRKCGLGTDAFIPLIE
Assay: Inhibition of Plasmodium falciparum FP-2 using Z-Leu-Arg-AMC as substrate pretreated with enzyme for 30 mins followed by substrate addition and measured for 30 mins by spectrofluorometry
pIC50: −log10 of the molar value.
Readout Type: pIC50

>>> df
                                 cpd_smiles  readout_number
0  C=CCn1c(SCC(=O)Nc2sc3c(c2C(N)=O)CCC3)nc2scc(-c3cccc([N+](=O)[O-])c3)c2c1=O            4.93
1  C[C@H]1[C@H](OC(=O)c2ccc(/C=N/NC(=O)Nc3ccc(F)cc3)cc2)O[C@@H]2O[C@@]3(C)CC[C@H]4[C@H](C)CC[C@@H]1[C@@]24OO3            6.19
2  COC(=O)c1ccc(CNC(=O)[C@@H](Cc2c[nH]c3ccccc23)NC(=O)Oc2ccccc2)cc1            4.88
3  O=C(Cc1ccccc1)N[C@H](Cc1c[nH]c2ccccc12)C(=O)NCc1ccccc1            4.40

###

molecular target: Falcipain-3 (Plasmodium falciparum 3D7, UniProt Q8IIL0); test: Inhibition of Plasmodium falciparum D10 trophozite lysates FP-3 pretreated with compound for 1 hr followed by labeling with Cy5-DCG04 for 1 hr by fluorescence scanning analysis
Sequence (Q8IIL0 243-492 limits assumed): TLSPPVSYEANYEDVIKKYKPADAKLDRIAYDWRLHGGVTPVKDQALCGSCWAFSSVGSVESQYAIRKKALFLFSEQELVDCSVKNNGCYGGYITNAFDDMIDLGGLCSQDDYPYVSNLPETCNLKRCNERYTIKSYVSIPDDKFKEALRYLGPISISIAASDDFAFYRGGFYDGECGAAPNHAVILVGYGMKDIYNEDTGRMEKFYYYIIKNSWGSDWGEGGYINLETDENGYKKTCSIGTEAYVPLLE
pIC50: −log10 of the molar value.

Compound	pIC50
CC[C@H](C)[C@@H](C(=O)O[C@@H](CC(C)C)C(=O)N[C@@H](CC(C)C)C(=O)N[C@@H](C)/C=C/C(=O)N1C(=O)C=C(OC)[C@@H]1C)N(C)C [GALLINAMIDE A]	7.66

###

target: Falcipain 2 (Plasmodium falciparum); experiment: Inhibition of Plasmodium falciparum FP-2 using Z-Leu-Arg-AMC as substrate at 10 uM pretreated with enzyme for 30 mins followed by substrate addition and measured for 30 mins by spectrofluorometry; settings: time 60.0 min
Measured inhibition, listed per entry for reference.
Readout Type: inhibition (%)

In [3]: df
Out[3]:
                                 cpd_smiles  readout_type  unit  readout_number
0  O=C(N[C@H](Cc1c[nH]c2ccccc12)C(=O)NCc1ccccc1)Oc1ccccc1    inhibition     %            29.4
1  C=CCn1c(SCC(=O)Nc2sc3c(c2C(N)=O)CCC3)nc2scc(-c3ccc(Cl)cc3)c2c1=O    inhibition     %            85.7
2  C=CCn1c(SCC(=O)Nc2sc3c(c2C(N)=O)CCC3)nc2scc(-c3ccccc3)c2c1=O    inhibition     %            88.7
3  O=C(N[C@H](Cc1c[nH]c2ccccc12)C(=O)NCc1ccc([N+](=O)[O-])cc1)Oc1ccccc1    inhibition     %            49.5
4  COC(=O)c1ccc(CNC(=O)[C@@H](Cc2c[nH]c3ccccc23)NC(=O)Oc2ccccc2)cc1    inhibition     %            32.9
5  O=C(Cc1ccccc1)N[C@H](Cc1c[nH]c2ccccc12)C(=O)NCc1ccccc1    inhibition     %            25.7
6  NC(=O)c1c(NC(=O)CSc2nc3scc(-c4ccccc4)c3c(=O)n2C2CCCCC2)sc2c1CCC2    inhibition     %            92.7
7  C=CCn1c(SCC(=O)Nc2sc3c(c2C(N)=O)CCC3)nc2scc(-c3cccc([N+](=O)[O-])c3)c2c1=O    inhibition     %              53
8  C=CCn1c(SCC(=O)Nc2sc3c(c2C(N)=O)CCC3)nc2sc3c(c2c1=O)CCCC3    inhibition     %            82.2
